These measurements were taken from ChEMBL document CHEMBL4715772.

Measurement record for Acetylcholinesterase (Homo sapiens); quantity recorded: pIC50.
Please treat pIC50 as minus the base-10 logarithm of the molar concentration.

Worked examples follow.
[[record]]
compound = "CN1CC(c2ccc(Cl)cc2Cl)[C@@]2(CSc3ccccc3C2=O)C12C(=O)c1ccccc1C2=O (single isomer, unassigned)"
tested_on = "Acetylcholinesterase (Homo sapiens)"
number = 4.62

[[record]]
compound = "CN1C[C@@H](c2cccc(Br)c2)[C@@]2(CSc3ccccc3C2=O)C12C(=O)c1ccccc1C2=O"
tested_on = "Acetylcholinesterase (Homo sapiens)"
number = 4.70

[[record]]
compound = "CN1C[C@@H](c2cccs2)[C@@]2(CSc3ccccc3C2=O)C12C(=O)c1ccccc1C2=O"
tested_on = "Acetylcholinesterase (Homo sapiens)"
number = 4.67


So the reported pIC50 for O=C1c2ccccc2C(=O)C12N1CSC[C@@H]1[C@@H](c1ccc(F)cc1)[C@@]21CSc2ccccc2C1=O , on Acetylcholinesterase (Homo sapiens), turned out to be 4.70

Bench note, Acetylcholinesterase (Homo sapiens): O=C1c2ccccc2C(=O)C12N1CSC[C@@H]1C(c1ccc(Cl)cc1Cl)[C@@]21CSc2ccccc2C1=O (single isomer, unassigned) , pIC50 reads 4.71

Known value: Acetylcholinesterase (Homo sapiens) pIC50 of the compound CC(C)c1ccc([C@@H]2CN(C)C3(C(=O)c4ccccc4C3=O)[C@]23CSc2ccccc2C3=O)cc1 equals 4.70

---

System: HT-29
assay_details: Antiproliferative activity against human HT-29 cells assessed as inhibition of cell proliferation incubated for 72 hrs by CellTiter-Glo assay
Format: functional, cell-based
setup_conditions: HT-29, 72 h
Items are presented alongside their recorded IC50.
Field format: number, assumed µM, no unit text.

Look over these answered cases.
[[record]]
molecule = "O=C1c2ccccc2C(=O)C12N1CSC[C@@H]1[C@@H](c1cccc(Br)c1)[C@@]21CSc2ccccc2C1=O"
experimental_endpoint = "IC50"
number = 79.6

[[record]]
molecule = "Cc1ccc([C@@H]2CN(C)C3(C(=O)c4ccccc4C3=O)[C@]23CSc2ccccc2C3=O)cc1"
experimental_endpoint = "IC50"
number = 101

[[record]]
molecule = "COc1cccc2c1C(=O)c1c(O)c3c(c(O)c1C2=O)C[C@@](O)(C(=O)CO)C[C@@H]3O[C@H]1C[C@H](N)[C@H](O)[C@H](C)O1"
experimental_endpoint = "IC50"
number = 12.9

[[record]]
molecule = "O=C1c2ccccc2C(=O)C12N1CSC[C@@H]1[C@@H](c1cccc3ccccc13)[C@@]21CSc2ccccc2C1=O"
experimental_endpoint = "IC50"
number = 93.4

[[record]]
molecule = "O=C1c2ccccc2C(=O)C12N1CSC[C@@H]1[C@@H](c1ccccc1)[C@@]21CSc2ccccc2C1=O"
experimental_endpoint = "IC50"
number = 92.2

[[record]]
molecule = "CN1CC(c2ccccc2Cl)[C@@]2(CSc3ccccc3C2=O)C12C(=O)c1ccccc1C2=O (single isomer, unassigned)"
experimental_endpoint = "IC50"
number = 97.2

[[record]]
molecule = "O=C1c2ccccc2C(=O)C12N1CSC[C@@H]1C(c1ccccc1Cl)[C@@]21CSc2ccccc2C1=O (single isomer, unassigned)"
experimental_endpoint = "IC50"
number = 88.1

[[record]]
molecule = "CN1C[C@@H](c2ccc(Cl)cc2)[C@@]2(CSc3ccccc3C2=O)C12C(=O)c1ccccc1C2=O"
experimental_endpoint = "IC50"
number = 94


The measured IC50 associated with CN1C[C@@H](c2ccc(F)cc2)[C@@]2(CSc3ccccc3C2=O)C12C(=O)c1ccccc1C2=O reads 99.6

So for O=C1c2ccccc2C(=O)C12N1CSC[C@@H]1[C@@H](c1cccc(F)c1)[C@@]21CSc2ccccc2C1=O , the logged IC50 turned out to be 91.7

GET /value?item= CN1C[C@@H](c2cccc(F)c2)[C@@]2(CSc3ccccc3C2=O)C12C(=O)c1ccccc1C2=O &field=IC50 returns 82.1

response.value for CC(C)c1ccc([C@@H]2CN(C)C3(C(=O)c4ccccc4C3=O)[C@]23CSc2ccccc2C3=O)cc1 (field: IC50) = 98.3

IC50 in this record for COc1ccc([C@@H]2CN(C)C3(C(=O)c4ccccc4C3=O)[C@]23CSc2ccccc2C3=O)cc1 : 93.4

IC50 in this record for CN1CC(c2ccccc2Br)[C@@]2(CSc3ccccc3C2=O)C12C(=O)c1ccccc1C2=O (single isomer, unassigned) : 86.8

Kindly note the recorded IC50 for CN1CC(c2ccc(Cl)cc2Cl)[C@@]2(CSc3ccccc3C2=O)C12C(=O)c1ccccc1C2=O (single isomer, unassigned) , which is 90

---

Here, each record is paired with measured IC50 data.
System: HT-29
assay_details: Antiproliferative activity against human HT-29 cells assessed as inhibition of cell proliferation incubated for 72 hrs by CellTiter-Glo assay
Format: functional, cell-based
setup_conditions: HT-29, 72 h
Write the number in µM without appending the unit.

[[record]]
compound = "O=C1c2ccccc2C(=O)C12N1CSC[C@@H]1C(c1ccc(Cl)cc1Cl)[C@@]21CSc2ccccc2C1=O (single isomer, unassigned)"
tested_on = "HT-29"
number = 101

[[record]]
compound = "CN1C[C@@H](c2ccc(Br)cc2)[C@@]2(CSc3ccccc3C2=O)C12C(=O)c1ccccc1C2=O"
tested_on = "HT-29"
number = 88.1


Consider now this further compound.
Per the record, CN1C[C@@H](c2cccc(Br)c2)[C@@]2(CSc3ccccc3C2=O)C12C(=O)c1ccccc1C2=O has IC50 of 108
